The values you see were collected from patent US20200399385A1.

# assay_target: T1, his-tagged soluble human OX40 (huOX40-6xhis) (human, UniProt P43489 29-214)
# T1 construct: made in-house; also called Human-OX40-6XHIS; hOX40; not shown: hexahistidine tag
# T1 sequence: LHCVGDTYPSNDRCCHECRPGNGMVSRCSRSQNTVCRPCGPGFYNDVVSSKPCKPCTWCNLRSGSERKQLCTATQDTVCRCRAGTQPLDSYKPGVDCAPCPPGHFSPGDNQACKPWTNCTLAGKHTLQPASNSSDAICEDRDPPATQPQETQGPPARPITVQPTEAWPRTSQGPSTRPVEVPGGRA
# assay_method_text: SPR, mAb captured on anti-human CH1, OX40-6XHIS analyte, 1:1 fit
Would you kindly list pKd for each of these binders?
One number for each entry, as −log10 of the molar value.

6E1 (antibody, V domains shown, also called 6E1.A12.A2; 6E1.A12) VH: QVQLVESGGGVVQPGRSLRLSCAASGFTFSSFAMHWVRQAPGKGLEWVTVISYDGSIKYYTDSVKGRFTFSRDNSKNTLYLQMNSLRAEDTAVYYCTRDGNYGSARYFQHWGQGTLVTVSS VL: EIVLTQSPATLSLSPGERATLSCRASQSVSSYLAWYQQKPGQAPRLLIYDASNRATGIPARFSGSGSGTDFTLTISSLEPEDFAVYYCQQRSNWPYTFGQGTKLEIK: 7.96

State recorded pKd for all listed binders.
1. 20C1 (antibody, V domains shown, also called 20C1.F2.D1; 20C1.F2) VH: EAQLVQSGGGLVHPGGSLRLSCADSGFTFSSYAMYWVRQAPGKGLEWVSAIDTDGGTFYADSVRGRFTISRDNAKNSLYLQMNGLRAEDMAVYFCARLGEGYFFDYWGQGTLVTVSS VL: EIVLTQSPATLSLSPGERATLSCRASQSVSSYLAWYQQKPGQAPRLLIYDASNRATGIPARFSGSGSGTDFTLTISSLEPEDFAVYYCQQRSNWPPTFGGGTKVEIK
2. 14B6 (antibody, V domains shown, also called 14B6.C5.C8; 14B6.C5) VH: EVQLEQSGAEVKKPGESLKISCKGSGYSFTSNWIGWVRQMPGKGLEWMGFIYPGDSDTRYSPSFQGQVTISADKSISTAYLQWSSLKASDIAMYYCARYGDDWYFDLWGRGTLVTVSS VL: EIVLTQSPATLSLSPGERATLSCRASQSVSSYLAWFQQRPGQAPRLLIYDASNRATGIPARFSGSGSGTDFSLTISSLEPEDFAVYYCQQRGDWPITFGQGTRLEIK
3. 23H3 (antibody, V domains shown, also called 23H3.C6) VH: EVQLVQSGGGLVHPGGSLRLSCAGSGFTFSNYAMYWVRQAPGKGLEWVSAIGIGGDTFYTDSVKGRFTISRDNAKNSLSLQMNSLRAEDMAVYYCARMGTGYFFDYWGQGTLVTVSS VL: EIVLTQSPATLSLSPGERATLSCRASQSVSSYLAWYQQKPGQAPRLLIYDASNRATGIPARFSGSGSGTDFTLTISSLEPEDFAVYYCQQRSNWPLTFGPGTKVDIK
4. 18E9 (antibody, V domains shown, human mAb from hybridoma; also called 18E9.G5.H4; 18E9.G5) VH: EVQLVQSGGGLVHPGGSLRLSCAHSGFTFTSSAMHWVRQAPGKGLEWISAIGTGGDTYYADSVKGRFTISRDNAKNSLYLQINSLRAEDMAVYYCARDFYDILTGIFDYWGQGTLVTVSS VL: DIQMTQSPSSVSASVGDRVTITCRASQGISSWLAWYQHKPGKAPKLLIYAASSLQSGVPSRFSGSGSGTDFTLTISSLQPEDFATYYCQQANSFPSTFGQGTKVEIK
5. 3F4 (antibody, V domains shown, also called 3F4.G11.D2; 3F4.G11) VH: QVQLVQSGAEVKKPGASVKVSCKASGNTFTSYDVNWVRQATGQGLEWMGWMNPNSGNTGYAPKFQGRVTMTRNTSISTAYMELSSLRSEDTAVYYCARIYSSSYNWFDPWGQGTLVTVSS VL: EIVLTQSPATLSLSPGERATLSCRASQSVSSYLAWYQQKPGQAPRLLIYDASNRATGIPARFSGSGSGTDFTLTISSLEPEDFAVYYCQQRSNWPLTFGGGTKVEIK
6. 20B3 (antibody, V domains shown, also called 20B3.G12.A2; 20B3.G2) VH: EVQLVESGGGLVQPGGSLRLSCAASGFTFSSYDMHWVRQTTGKGLEWVSVIGTAGDTYYPGSVKGRFTISRENAKNSLYLQMNSLRAGDTAVYYCARGGMGNYFDYWGQGTLVTVSS VL: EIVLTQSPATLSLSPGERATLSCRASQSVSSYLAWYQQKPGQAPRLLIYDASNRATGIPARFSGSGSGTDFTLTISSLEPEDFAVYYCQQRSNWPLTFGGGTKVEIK

1. 8.49
2. 8.05
3. 8.44
4. 8.69
5. 8.15
6. 8.43
